Biological target: Cyclin-dependent kinase 5 (Homo sapiens, UniProt Q00535)
Sequence (Q00535 whole entry): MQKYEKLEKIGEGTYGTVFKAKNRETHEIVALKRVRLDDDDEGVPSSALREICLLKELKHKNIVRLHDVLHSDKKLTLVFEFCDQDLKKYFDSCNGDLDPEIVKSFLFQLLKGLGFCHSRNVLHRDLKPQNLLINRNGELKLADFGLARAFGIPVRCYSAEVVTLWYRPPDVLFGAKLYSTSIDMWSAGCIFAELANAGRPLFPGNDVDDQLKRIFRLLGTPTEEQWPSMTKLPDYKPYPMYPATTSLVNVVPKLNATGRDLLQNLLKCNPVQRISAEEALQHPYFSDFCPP
Experiment: Inhibition of human GST-tagged CDK5
property: IC50

## Input Entry under review: CN1C/C=C/CCOc2cccc(c2)-c2ccnc(n2)Nc2cccc(c2)C1 [ZOTIRACICLIB] . Reported IC50?
## Output 3 to 15 nM

* * *

Molecular target: CDK3/Cyclin E (Homo sapiens, UniProt Q00526)
Sequence (P24864 whole entry): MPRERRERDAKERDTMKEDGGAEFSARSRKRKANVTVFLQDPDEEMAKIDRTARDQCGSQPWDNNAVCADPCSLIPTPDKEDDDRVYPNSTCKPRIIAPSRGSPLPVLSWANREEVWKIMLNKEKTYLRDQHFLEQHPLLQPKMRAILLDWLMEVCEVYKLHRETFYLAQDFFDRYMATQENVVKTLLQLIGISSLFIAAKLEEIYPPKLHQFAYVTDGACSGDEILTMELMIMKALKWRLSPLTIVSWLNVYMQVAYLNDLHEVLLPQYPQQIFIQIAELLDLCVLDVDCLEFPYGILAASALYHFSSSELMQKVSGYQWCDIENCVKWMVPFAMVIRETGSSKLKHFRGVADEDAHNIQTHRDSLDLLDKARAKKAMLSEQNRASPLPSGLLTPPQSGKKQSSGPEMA
Sequence (Q00526 whole entry): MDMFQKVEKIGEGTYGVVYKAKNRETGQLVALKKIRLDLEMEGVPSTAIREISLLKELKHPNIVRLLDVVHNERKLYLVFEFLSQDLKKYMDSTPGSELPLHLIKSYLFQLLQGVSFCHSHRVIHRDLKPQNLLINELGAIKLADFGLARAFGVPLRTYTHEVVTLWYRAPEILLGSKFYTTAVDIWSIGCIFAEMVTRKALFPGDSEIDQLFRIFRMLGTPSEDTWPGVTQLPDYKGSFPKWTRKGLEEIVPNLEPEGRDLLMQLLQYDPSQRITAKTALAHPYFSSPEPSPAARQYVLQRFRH
Assay: Inhibition of recombinant human full length C-terminal His6-tagged CDK3/N-terminal GST-tagged cyclin E expressed in baculovirus infected Sf21 insect cells using Histone H1 as substrate
pIC50: −log10 of the molar value.
property: pIC50

## Input Suppose we examine the compound CN1C/C=C/CCOc2cccc(c2)-c2ccnc(n2)Nc2cccc(c2)C1 [ZOTIRACICLIB] ; what pIC50 value has been reported?
## Output 7.82 to 8.52
